The measured values listed here are drawn from the supplement of paper PMC10883282.

system: VA-ES-BJ; test: relative viability vs DMSO control (72 h) (fraction); higher = more viable cells; settings: 3.333 µM
Result type: relative viability
Write the number on its own, no unit after it.

{"Compound string": "CC[C@H](Nc1ncnc2[nH]cnc12)c1nc2cccc(F)c2c(=O)n1-c1ccccc1", "relative viability": 0.872}

# lookup: COCc1c(-c2cc3cc(C)cc(OC)c3s2)c2c(N)ncnn2c1CN1CCNC(=O)C1 on VA-ES-BJ, relative viability = 0.908

# lookup: CO[C@H]1C[C@@H]2CC[C@@H](C)[C@@](O)(O2)C(=O)C(=O)N2CCCC[C@H]2C(=O)O[C@H]([C@H](C)C[C@@H]2CC[C@@H](OP(C)(C)=O)[C@H](OC)C2)CC(=O)[C@H](C)/C=C(\C)[C@@H](O)[C@@H](OC)C(=O)[C@H](C)C[C@H](C)/C=C/C=C/C=C/1C on VA-ES-BJ, relative viability = 0.458

* * *

// reported relative viability per item
system: SK-LMS-1; experiment: relative viability vs DMSO control (72 h) (fraction); higher = more viable cells; conditions: 10 µM
Where a name gives a salt, the structure may show the parent alone.

Illustrative cases are given below, each with its answer.
{"Compound": "Cc1ccc(F)c(NC(=O)Nc2ccc(-c3cccc4[nH]nc(N)c34)cc2)c1 [Linifanib]", "Result type": "relative viability", "Result value": 1.06}
{"Compound": "C=CC(=O)Nc1cccc(Oc2nc(Nc3ccc(N4CCN(C)CC4)cc3)nc3ccsc23)c1 [Olmutinib]", "Result type": "relative viability", "Result value": 0.113}
{"Compound": "Cc1nc(-c2cn3c(n2)-c2ccc(-c4cnn(C(C)(C)C(N)=O)c4)cc2OCC3)n(C(C)C)n1 [Taselisib]", "Result type": "relative viability", "Result value": 0.315}
{"Compound": "COc1c(OCCCN2CCOCC2)ccc2c1N=C(NC(=O)c1cnc(N)nc1)N1CCN=C21 [Copanlisib]", "Result type": "relative viability", "Result value": 0.302}
{"Compound": "C[C@@H](c1ccc2nccn2c1)n1nnc2ncc(-c3cnn(C)c3)nc21 [Volitinib]", "Result type": "relative viability", "Result value": 0.538}
{"Compound": "N#CC[C@H](C1CCCC1)n1cc(-c2ncnc3[nH]ccc23)cn1 [Ruxolitinib]", "Result type": "relative viability", "Result value": 0.828}
{"Compound": "CC(C)N1CCN(Cc2cnc(-c3cc(-c4cccc5[nH]ccc45)cc4[nH]ncc34)o2)CC1 [Nemiralisib]", "Result type": "relative viability", "Result value": 0.658}
{"Compound": "COc1cccc2c1C(=O)c1c(O)c3c(c(O)c1C2=O)C[C@@](O)(C(=O)CO)C[C@@H]3O[C@H]1C[C@H](N)[C@H](O)[C@H](C)O1 [Doxorubicin Hydrochloride]", "Result type": "relative viability", "Result value": 0.293}
{"Compound": "CC1(C)CNc2cc(NC(=O)c3cccnc3NCc3ccncc3)ccc21 [Motesanib]", "Result type": "relative viability", "Result value": 0.925}
{"Compound": "CC(C)NC(=O)C1CCC(n2c(NC(=O)c3ccc(F)cc3)nc3ccc(CN4CCC(C(C)(C)O)CC4)cc32)CC1 (centres undefined) [Belizatinib]", "Result type": "relative viability", "Result value": 0.38}

Recorded result, C[C@@H]1CCN(C(=O)CC#N)C[C@@H]1N(C)c1ncnc2[nH]ccc12 [Tofacitinib] , relative viability: 0.902

Recorded result, Cn1cnc2c(F)c(Nc3ccc(Br)cc3F)c(C(=O)NOCCO)cc21 [Binimetinib] , relative viability: 0.375

Recorded result, CC(C)(C)c1cc(NC(=O)Nc2ccc(-c3cn4c(n3)sc3cc(OCCN5CCOCC5)ccc34)cc2)no1 [Quizartinib] , relative viability: 0.528

Recorded result, C[C@@H]1COCCN1c1cc(-c2ccnn2C)c2ccnc(-c3ccn[nH]3)c2n1 , relative viability: 0.234

* * *

system: SK-ES-1; assay: relative viability vs DMSO control (72 h) (fraction); higher = more viable cells; conditions: 1.111 µM
Result type: relative viability
Write the number on its own, no unit after it.

Illustrative cases are given below, each with its answer.
{"Compound string": "Cn1cc(-c2cc3c(N4CCN(c5ncc([C@@](C)(N)c6ccc(F)cc6)cn5)CC4)ncnn3c2)cn1", "Target under test": "SK-ES-1", "relative viability": 0.906}
{"Compound string": "CNC(=O)c1ccc(-c2cnc3ncc(Cc4ccc5ncccc5c4)n3n2)cc1F", "Target under test": "SK-ES-1", "relative viability": 1.12}
{"Compound string": "C=CC(=O)N1CCC([C@@H]2CCNc3c(C(N)=O)c(-c4ccc(Oc5ccccc5)cc4)nn32)CC1", "Target under test": "SK-ES-1", "relative viability": 0.894}
{"Compound string": "N#CC[C@H](C1CCCC1)n1cc(-c2ncnc3[nH]ccc23)cn1", "Target under test": "SK-ES-1", "relative viability": 0.932}
{"Compound string": "COc1c(OCCCN2CCOCC2)ccc2c1N=C(NC(=O)c1cnc(N)nc1)N1CCN=C21", "Target under test": "SK-ES-1", "relative viability": 0.15}

Recorded result, O=C(Cc1ccc(-c2ccc(OCCN3CCOCC3)cc2)cn1)NCc1ccccc1 , relative viability: 0.0192

Recorded result, CC1(C)CNc2cc(NC(=O)c3cccnc3NCc3ccncc3)ccc21 , relative viability: 0.954

Recorded result, Cc1nc(-c2cn3c(n2)-c2ccc(-c4cnn(C(C)(C)C(N)=O)c4)cc2OCC3)n(C(C)C)n1 , relative viability: 0.348

* * *

system: SW684; assay: relative viability vs DMSO control (72 h) (fraction); higher = more viable cells; conditions: 10 µM
With a cut-off of 0.5, any relative viability strictly below it is called 1.0; any relative viability meeting it or above is called 0.0.

{"Compound": "CN1CCN(c2ccc3nc(-c4c(N)c5c(F)cccc5[nH]c4=O)[nH]c3c2)CC1 [Dovitinib]", "Group": 1.0}
{"Compound": "CC(=O)Nc1cccc(-n2c(=O)n(C3CC3)c(=O)c3c(Nc4ccc(I)cc4F)n(C)c(=O)c(C)c32)c1 [Trametinib]", "Group": 1.0}
{"Compound": "Cc1ccc(NC(=O)c2ccc(CN3CCN(C)CC3)cc2)cc1Nc1nc(-c2cccnc2)cs1 [Masitinib]", "Group": 1.0}
{"Compound": "C=CC(=O)N1CCC[C@@H](n2nc(-c3ccc(Oc4ccccc4)cc3)c3c(N)ncnc32)C1 [Ibrutinib]", "Group": 0.0}
{"Compound": "N#CC[C@H](C1CCCC1)n1cc(-c2ncnc3[nH]ccc23)cn1 [Ruxolitinib]", "Group": 0.0}

query: Does the reported relative viability of Cn1cc(-c2cc3c(N4CCN(c5ncc([C@@](C)(N)c6ccc(F)cc6)cn5)CC4)ncnn3c2)cn1 [Avapritinib] stay below 0.5?
result: 0.0

query: Does the reported relative viability of Cc1cc(Nc2ncnc3ccc(NC4=NC(C)(C)CO4)cc23)ccc1Oc1ccn2ncnc2c1 [Tucatinib] stay below 0.5?
result: 0.0

query: Does the reported relative viability of CCc1cc2c(cc1N1CCC(N3CCOCC3)CC1)C(C)(C)c1[nH]c3cc(C#N)ccc3c1C2=O [Alectinib] stay below 0.5?
result: 0.0

* * *

tested on: SW1353; test: relative viability vs DMSO control (72 h) (fraction); higher = more viable cells; details: 0.00457 µM
Result type: relative viability
Write the number on its own, no unit after it.

Illustrative cases are given below, each with its answer.
{"Compound": "Cn1cnc2c(F)c(Nc3ccc(Br)cc3F)c(C(=O)NOCCO)cc21", "relative viability": 0.993}
{"Compound": "CC(C)N1CCN(Cc2cnc(-c3cc(-c4cccc5[nH]ccc45)cc4[nH]ncc34)o2)CC1", "relative viability": 0.99}
{"Compound": "Nc1cc(C(F)(F)F)c(-c2cc(N3CCOCC3)nc(N3CCOCC3)n2)cn1", "relative viability": 0.982}
{"Compound": "CO[C@H]1C[C@@H]2CC[C@@H](C)[C@@](O)(O2)C(=O)C(=O)N2CCCC[C@H]2C(=O)O[C@H]([C@H](C)C[C@@H]2CC[C@@H](OP(C)(C)=O)[C@H](OC)C2)CC(=O)[C@H](C)/C=C(\\C)[C@@H](O)[C@@H](OC)C(=O)[C@H](C)C[C@H](C)/C=C/C=C/C=C/1C", "relative viability": 0.771}
{"Compound": "CC(C)NC(=O)C1CCC(n2c(NC(=O)c3ccc(F)cc3)nc3ccc(CN4CCC(C(C)(C)O)CC4)cc32)CC1 (stereo unspecified)", "relative viability": 1.05}

Recorded result, CCc1cc2c(cc1N1CCC(N3CCOCC3)CC1)C(C)(C)c1[nH]c3cc(C#N)ccc3c1C2=O , relative viability: 1

* * *

system: RD; assay: standardised AUC of viability dose-response curve (72 h) (fraction (0-1)); higher = less growth inhibition (more resistant)
Respond with yes (1) for standardised AUC values of 0.9 and above, no (0) for values below.

Answered cases to consult:
{"Compound string": "Cc1cc(Nc2ncnc3ccc(NC4=NC(C)(C)CO4)cc23)ccc1Oc1ccn2ncnc2c1", "Group": "yes (1)"}
{"Compound string": "C[C@@H]1COCCN1c1cc(-c2ccnn2C)c2ccnc(-c3ccn[nH]3)c2n1", "Group": "no (0)"}
{"Compound string": "COc1cc2c(Oc3ccc4[nH]c(C)cc4c3F)ncnc2cc1OCCCN1CCCC1", "Group": "yes (1)"}
{"Compound string": "Cc1nc(-c2cn3c(n2)-c2ccc(-c4cnn(C(C)(C)C(N)=O)c4)cc2OCC3)n(C(C)C)n1", "Group": "no (0)"}
{"Compound string": "CC[C@H](Nc1ncnc2[nH]cnc12)c1nc2cccc(F)c2c(=O)n1-c1ccccc1", "Group": "yes (1)"}
{"Compound string": "CO[C@H]1C[C@@H]2CC[C@@H](C)[C@@](O)(O2)C(=O)C(=O)N2CCCC[C@H]2C(=O)O[C@H]([C@H](C)C[C@@H]2CC[C@@H](OP(C)(C)=O)[C@H](OC)C2)CC(=O)[C@H](C)/C=C(\\C)[C@@H](O)[C@@H](OC)C(=O)[C@H](C)C[C@H](C)/C=C/C=C/C=C/1C", "Group": "no (0)"}
{"Compound string": "N#CC[C@H](C1CCCC1)n1cc(-c2ncnc3[nH]ccc23)cn1", "Group": "yes (1)"}
{"Compound string": "Nc1cc(C(F)(F)F)c(-c2cc(N3CCOCC3)nc(N3CCOCC3)n2)cn1", "Group": "no (0)"}
{"Compound string": "COc1cc2/c(=N/c3ccc(Br)cc3F)nc[nH]c2cc1OCC1CCN(C)CC1", "Group": "no (0)"}

Now for a further compound.
query: Exam item: decide whether the reported standardised AUC for O=C(Cc1ccc(-c2ccc(OCCN3CCOCC3)cc2)cn1)NCc1ccccc1 is at least 0.9.
result: no (0)
